# collection of pIC50 values tested on UniProt:O14757
# Sequence (O14757 whole entry): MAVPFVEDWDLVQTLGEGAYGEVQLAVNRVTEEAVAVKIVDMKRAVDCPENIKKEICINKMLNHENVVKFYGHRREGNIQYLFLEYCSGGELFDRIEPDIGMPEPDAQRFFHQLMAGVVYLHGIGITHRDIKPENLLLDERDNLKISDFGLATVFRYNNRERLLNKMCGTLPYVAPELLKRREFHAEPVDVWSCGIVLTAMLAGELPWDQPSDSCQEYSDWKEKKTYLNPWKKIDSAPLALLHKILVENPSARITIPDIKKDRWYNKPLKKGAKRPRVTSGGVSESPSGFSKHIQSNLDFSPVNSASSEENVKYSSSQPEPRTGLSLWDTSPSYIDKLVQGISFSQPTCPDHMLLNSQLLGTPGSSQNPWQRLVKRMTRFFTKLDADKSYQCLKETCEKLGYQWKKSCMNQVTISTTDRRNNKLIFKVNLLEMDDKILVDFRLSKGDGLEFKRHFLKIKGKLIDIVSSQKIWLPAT
Keep it numeric: pIC50 is minus log10 of the concentration in mol/L.

Incoming: State the measured pIC50 (UniProt:O14757) of COc1nccc(OCC2(CN)CC2)c1-c1cc(Nc2cnc(C#N)cn2)n[nH]1
Outgoing: 9.15

Incoming: State the measured pIC50 (UniProt:O14757) of COc1cncc(OC[C@@H](F)CN)c1-c1cc(Nc2cnc(C#N)cn2)n[nH]1
Outgoing: 9.22

Incoming: State the measured pIC50 (UniProt:O14757) of COc1cncc(OC[C@@H](O)CN)c1-c1cc(Nc2cnc(C#N)cn2)n[nH]1
Outgoing: 9.66

Incoming: State the measured pIC50 (UniProt:O14757) of COc1cncc(O[C@H](C)C2CNC2)c1-c1cc(Nc2cnc(C#N)cn2)n[nH]1
Outgoing: 9.16

Incoming: State the measured pIC50 (UniProt:O14757) of COc1ccnc(OCCCN)c1-c1cc(Nc2cnc(Cl)cn2)n[nH]1
Outgoing: 9.59
